system_tested: recombinant tick kinin receptor (BMLK3) (Rhipicephalus microplus)
measurement_protocol: Dose-response dual-addition calcium fluorescence assay on BMLK3 cells
Assay type: cell-based
experimental_context: 12 μM; BMLK3 cells
measure_name: Inhibitory Efficacy at 12 μM

**Q:** Please look up its Inhibitory Efficacy at 12 μM: Cc1ccc(-c2csc3ncnc(NCc4ccco4)c23)cc1 [SACC-0033457]
**A:** 55.73%

**Q:** Which Inhibitory Efficacy at 12 μM is listed for Cc1ccc(S(=O)(=O)NN2C(=O)C(=Cc3cccc4ccccc34)SC2=S)cc1 [SACC-0412062] ?
**A:** 50.31%

**Q:** Using the record for CCCCCCCCn1c2c(c(=N)c3c1CCC3)CCCC2 [SACC-0050177] , report its Inhibitory Efficacy at 12 μM.
**A:** 35.48%

**Q:** Give its Inhibitory Efficacy at 12 μM value. Item: CCN1C=C/C(=C\C=C\c2cc[n+](CC)c3ccccc23)c2ccccc21 [SACC-0054132]
**A:** 37.34%

**Q:** I have this compound here, Cc1ccc(C=C2SC(=S)N(NS(=O)(=O)c3ccc(C)cc3)C2=O)cc1 [SACC-0412061] , and I need its recorded Inhibitory Efficacy at 12 μM.
**A:** 48.16%

###

system_tested: recombinant tick kinin receptor (BMLK3) (Rhipicephalus microplus, UniProt Q9NHA4)
Sequence (Q9NHA4 entry or part of it): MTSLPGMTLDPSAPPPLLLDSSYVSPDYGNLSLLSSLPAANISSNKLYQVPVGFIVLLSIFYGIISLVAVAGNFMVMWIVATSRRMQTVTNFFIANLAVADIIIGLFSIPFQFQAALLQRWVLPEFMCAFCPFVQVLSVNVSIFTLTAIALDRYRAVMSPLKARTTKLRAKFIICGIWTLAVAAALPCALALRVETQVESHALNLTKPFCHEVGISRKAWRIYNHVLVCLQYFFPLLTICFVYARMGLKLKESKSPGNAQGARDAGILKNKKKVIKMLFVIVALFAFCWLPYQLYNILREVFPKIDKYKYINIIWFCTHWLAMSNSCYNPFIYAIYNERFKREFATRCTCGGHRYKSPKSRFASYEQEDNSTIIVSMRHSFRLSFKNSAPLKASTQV
measurement_protocol: Dose-response dual-addition calcium fluorescence assay on BMLK3 cells
Type: cell-based
experimental_context: first addition, 20 concentrations 28 nM-25 μM; read-out: BMLK3 EC50
measure_name: pEC50
Just so you know, pEC50 here is -log10 of the concentration in molar units; reply with that number alone.

Look over these answered cases.
# chemical_smiles, pEC50
data = [
    ("O=C(Cn1cnc2ccccc21)NCc1ccc(OCc2ccccc2)cc1", 6.52),
    ("O=C(NC(=S)NNC(=O)c1cc(-c2ccccc2)nc2ccccc12)c1cccs1", 5.76),
    ("CCCC1=CC(=C2NNC(C)=C2c2ccc(C(=O)OCC)o2)C(O)=CC1=O", 6.55),
    ("Cc1ccc(-c2csc3ncnc(NCc4ccco4)c23)cc1", 6.91),
]

**Q:** Missing value: pEC50, recombinant tick kinin receptor (BMLK3) (Rhipicephalus microplus, UniProt Q9NHA4), entry O=C(CCc1nc(-c2cccs2)no1)Nc1ccc(-n2cnc3ccccc32)nc1 . Fill in?
**A:** 4.92

###

system_tested: recombinant tick kinin receptor (BMLK3) (Rhipicephalus microplus)
measurement_protocol: Dose-response dual-addition calcium fluorescence assay on BMLK3 cells
Format: cell-based
experimental_context: second addition Rhimi-K-1 1 μmol L^−1; read-out: BMLK3 IC50
Property: pIC50; scope: individual molecules
Reminder that pIC50 is minus the log10 of a molar concentration.

Example results:
# chemical_smiles, measure_name, recorded_measurement
measured = [
    ("C=C(NNC(=S)Nc1c(C)cccc1C)c1cc2ccccc2o1", "pIC50", 5.35),
    ("Cc1oc(S(=O)(=O)N2CCOCC2)cc1C(=O)Nc1ccc(F)cc1", "pIC50", 6.65),
]

**Q:** What does the data say about its pIC50? Entry: C[C@@](O)(C#Cc1ccccc1)c1ccc(N2CCCCC2)c(F)c1
**A:** 4.76

**Q:** Recorded pIC50 for O=C(CCc1nc(-c2cccs2)no1)Nc1ccc(-n2cnc3ccccc32)nc1 , please?
**A:** 4.96

**Q:** Need pIC50, item O=C(CSC1=NCCS1)c1ccc(Cl)cc1
**A:** 6.68

**Q:** Form field: reported pIC50 of Cc1cc(N=CN(C)C)c2ccccc2n1
**A:** 5.38

**Q:** Need pIC50 of O=C(O)COc1ccc(Br)cc1/C=N/Nc1cccc2cccnc12 , thanks.
**A:** 5.07

**Q:** Reported pIC50, molecule CC(C)(C)c1ccc(C(=O)NNC(=S)NC(=O)c2cccnc2)cc1 : ____
**A:** 5.20

The reported measurements were obtained from patent US20240251785A1.
